Provenance of the data: PubChem BioAssay AID1671190

# ASSAY TARGET: Polyunsaturated fatty acid lipoxygenase ALOX12 (Homo sapiens) (UniProt P18054)
# Sequence (P18054 whole entry, looked up): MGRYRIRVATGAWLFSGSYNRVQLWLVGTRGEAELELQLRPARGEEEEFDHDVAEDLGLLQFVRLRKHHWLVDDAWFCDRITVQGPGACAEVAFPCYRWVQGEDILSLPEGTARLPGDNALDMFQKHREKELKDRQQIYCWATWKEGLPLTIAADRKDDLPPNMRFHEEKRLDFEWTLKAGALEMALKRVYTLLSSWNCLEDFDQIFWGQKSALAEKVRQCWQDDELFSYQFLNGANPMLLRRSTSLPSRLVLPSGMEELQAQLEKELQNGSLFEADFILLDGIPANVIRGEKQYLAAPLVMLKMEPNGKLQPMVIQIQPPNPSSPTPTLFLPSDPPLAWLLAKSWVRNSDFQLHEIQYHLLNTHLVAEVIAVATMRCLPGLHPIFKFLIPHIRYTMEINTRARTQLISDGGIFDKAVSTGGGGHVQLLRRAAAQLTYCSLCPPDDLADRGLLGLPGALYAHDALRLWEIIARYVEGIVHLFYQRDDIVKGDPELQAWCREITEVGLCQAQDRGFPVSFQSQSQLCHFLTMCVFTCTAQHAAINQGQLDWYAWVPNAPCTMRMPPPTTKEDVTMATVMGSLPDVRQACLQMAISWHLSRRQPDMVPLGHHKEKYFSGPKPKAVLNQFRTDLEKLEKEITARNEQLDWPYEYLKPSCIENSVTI
# ASSAY PROCEDURE: Primary qHTS assay for inhibitors of human arachidonate 12S-lipoxygenase (ALOX12): Round 2
# PROTOCOL CONDITIONS: purified 12hLO, xylenol orange hydroperoxide absorbance; series mostly up to 108 µM
Out of some 580,000 compounds screened, about 6,100 (1.1%) were called active. Roughly 15% stayed inconclusive and do not appear here. Calls follow the shape of the dose curve; as a rule, active = well fitted inhibition curve with a large enough effect; inconclusive = small, poorly fitted or top-dose-only effect, or another doubt; inactive = no such curve, though single readings can be large or run the other way. Shown is part of a subset that was picked to be rich in actives.
Outcome codes: true = active, false = inactive

{"MOLECULE": "COc1ccccc1C(=O)N1CCCN(CCc2ccccc2)c2ccccc21", "ASSAY TARGET": "Polyunsaturated fatty acid lipoxygenase ALOX12 (Homo sapiens) (UniProt P18054)", "LABEL": "false"}
{"MOLECULE": "CCOC(=O)C1=C(C)NC(=O)NC1c1ccc(C(=O)OC)cc1 (stereo not drawn)", "ASSAY TARGET": "Polyunsaturated fatty acid lipoxygenase ALOX12 (Homo sapiens) (UniProt P18054)", "LABEL": "false"}
{"MOLECULE": "CCCCCCCC1CCC(c2ccc(-c3ccc(CCCC)cn3)cc2)CC1 (stereo not drawn)", "ASSAY TARGET": "Polyunsaturated fatty acid lipoxygenase ALOX12 (Homo sapiens) (UniProt P18054)", "LABEL": "false"}
{"MOLECULE": "CN(CCCNC1CCC2(CCNCC2)CC1)c1ccccc1", "ASSAY TARGET": "Polyunsaturated fatty acid lipoxygenase ALOX12 (Homo sapiens) (UniProt P18054)", "LABEL": "true"}
{"MOLECULE": "CC1CCN(CCCNC(=O)c2cc(=O)c3ccccc3o2)CC1", "ASSAY TARGET": "Polyunsaturated fatty acid lipoxygenase ALOX12 (Homo sapiens) (UniProt P18054)", "LABEL": "false"}
{"MOLECULE": "Cc1nc(C)c(-c2csc(NCCc3ccccc3)n2)s1", "ASSAY TARGET": "Polyunsaturated fatty acid lipoxygenase ALOX12 (Homo sapiens) (UniProt P18054)", "LABEL": "true"}
{"MOLECULE": "Cc1ccc(NNC(=O)c2cccs2)cc1Cl", "ASSAY TARGET": "Polyunsaturated fatty acid lipoxygenase ALOX12 (Homo sapiens) (UniProt P18054)", "LABEL": "true"}
{"MOLECULE": "O=C(Nc1cccnc1)c1cc(-c2ccc(F)cc2)nc2ccccc12", "ASSAY TARGET": "Polyunsaturated fatty acid lipoxygenase ALOX12 (Homo sapiens) (UniProt P18054)", "LABEL": "false"}
{"MOLECULE": "Cc1ccc(C(NC(=O)C2CCN(CCOc3ccc(Cl)cc3Cl)CC2)c2ccccn2)cc1 (stereo not drawn)", "ASSAY TARGET": "Polyunsaturated fatty acid lipoxygenase ALOX12 (Homo sapiens) (UniProt P18054)", "LABEL": "true"}
{"MOLECULE": "Cc1cccc(C)c1Nc1nc(-c2ccccc2)cs1", "ASSAY TARGET": "Polyunsaturated fatty acid lipoxygenase ALOX12 (Homo sapiens) (UniProt P18054)", "LABEL": "false"}
{"MOLECULE": "CCCn1nc(C(=O)N(CCOC)Cc2cccs2)c2ccccc2c1=O", "ASSAY TARGET": "Polyunsaturated fatty acid lipoxygenase ALOX12 (Homo sapiens) (UniProt P18054)", "LABEL": "false"}
{"MOLECULE": "COc1ccc(C(=O)NC[C@@H]2C=C(C)[C@H](Cc3nnc(-c4cncn4C)o3)C[C@H]2C(C)C)cc1", "ASSAY TARGET": "Polyunsaturated fatty acid lipoxygenase ALOX12 (Homo sapiens) (UniProt P18054)", "LABEL": "false"}
{"MOLECULE": "O=C(CSc1nncn1-c1ccccc1F)Nc1ccccc1C(=O)Nc1ccccc1", "ASSAY TARGET": "Polyunsaturated fatty acid lipoxygenase ALOX12 (Homo sapiens) (UniProt P18054)", "LABEL": "false"}
{"MOLECULE": "O=C(CCc1ccccc1)Nc1ccc(Cl)c(C(F)(F)F)c1", "ASSAY TARGET": "Polyunsaturated fatty acid lipoxygenase ALOX12 (Homo sapiens) (UniProt P18054)", "LABEL": "false"}
{"MOLECULE": "Cc1nn(C)c2nc(C(C)C)cc(C(=O)N3CCN(c4ncccn4)CC3)c12", "ASSAY TARGET": "Polyunsaturated fatty acid lipoxygenase ALOX12 (Homo sapiens) (UniProt P18054)", "LABEL": "false"}
{"MOLECULE": "Cc1nnc(SCC(=O)Nc2sc3c(c2C#N)CCCC3)n1CC(C)C", "ASSAY TARGET": "Polyunsaturated fatty acid lipoxygenase ALOX12 (Homo sapiens) (UniProt P18054)", "LABEL": "false"}
{"MOLECULE": "Cc1ccc(S(=O)(=O)/N=C2\\C=C(NS(=O)(=O)c3ccc(C)cc3)C(=O)c3ccccc32)cc1", "ASSAY TARGET": "Polyunsaturated fatty acid lipoxygenase ALOX12 (Homo sapiens) (UniProt P18054)", "LABEL": "true"}
{"MOLECULE": "Cc1cccnc1C(NC(=O)C1CCN(Cc2ccc(Cl)c(Cl)c2)CC1)c1ccc(Cl)cc1 (stereo not drawn)", "ASSAY TARGET": "Polyunsaturated fatty acid lipoxygenase ALOX12 (Homo sapiens) (UniProt P18054)", "LABEL": "false"}
{"MOLECULE": "CSCC(NS(=O)(=O)c1ccc(C)cc1)C(=O)O (stereo not drawn)", "ASSAY TARGET": "Polyunsaturated fatty acid lipoxygenase ALOX12 (Homo sapiens) (UniProt P18054)", "LABEL": "false"}
{"MOLECULE": "O=C(/C=C/c1ccc(Cl)c([N+](=O)[O-])c1)c1cccnc1", "ASSAY TARGET": "Polyunsaturated fatty acid lipoxygenase ALOX12 (Homo sapiens) (UniProt P18054)", "LABEL": "true"}
{"MOLECULE": "O=C(Nc1nc(-c2ccco2)c(-c2ccco2)s1)c1ccco1", "ASSAY TARGET": "Polyunsaturated fatty acid lipoxygenase ALOX12 (Homo sapiens) (UniProt P18054)", "LABEL": "true"}
{"MOLECULE": "COc1ccc(-c2nn(-c3ccccc3)cc2/C=C\\C(=O)Nc2ccc(C(=O)O)cc2)cc1", "ASSAY TARGET": "Polyunsaturated fatty acid lipoxygenase ALOX12 (Homo sapiens) (UniProt P18054)", "LABEL": "true"}
{"MOLECULE": "COC(=O)C1=C(C)NC(=O)C1(NC(=O)c1ccccc1F)C(F)(F)F (stereo not drawn)", "ASSAY TARGET": "Polyunsaturated fatty acid lipoxygenase ALOX12 (Homo sapiens) (UniProt P18054)", "LABEL": "false"}
{"MOLECULE": "O=C(COc1ncnc2c(Cl)cc(Cl)cc12)Nc1cc(F)ccc1F", "ASSAY TARGET": "Polyunsaturated fatty acid lipoxygenase ALOX12 (Homo sapiens) (UniProt P18054)", "LABEL": "false"}
{"MOLECULE": "COc1ccc(NC(=O)c2cn(-c3ccccc3)nc2SC)cc1", "ASSAY TARGET": "Polyunsaturated fatty acid lipoxygenase ALOX12 (Homo sapiens) (UniProt P18054)", "LABEL": "false"}
{"MOLECULE": "Cc1nc(-c2ccc(OC(F)(F)F)cc2)sc1C(=O)N1CCCC1", "ASSAY TARGET": "Polyunsaturated fatty acid lipoxygenase ALOX12 (Homo sapiens) (UniProt P18054)", "LABEL": "false"}
{"MOLECULE": "COc1cc(Cl)c(C)cc1NC(=O)[C@@H]1CCCN1C(=O)c1cccs1", "ASSAY TARGET": "Polyunsaturated fatty acid lipoxygenase ALOX12 (Homo sapiens) (UniProt P18054)", "LABEL": "false"}
{"MOLECULE": "Cc1nc2sccn2c(=O)c1S(=O)(=O)NCCc1ccccc1", "ASSAY TARGET": "Polyunsaturated fatty acid lipoxygenase ALOX12 (Homo sapiens) (UniProt P18054)", "LABEL": "false"}
{"MOLECULE": "CCOc1ccc(S(=O)(=O)N2CCC(C(=O)NCc3ccccn3)CC2)cc1Cl", "ASSAY TARGET": "Polyunsaturated fatty acid lipoxygenase ALOX12 (Homo sapiens) (UniProt P18054)", "LABEL": "false"}
{"MOLECULE": "COc1cccc(C(=O)Nc2ccc3oc(C)nc3c2)c1", "ASSAY TARGET": "Polyunsaturated fatty acid lipoxygenase ALOX12 (Homo sapiens) (UniProt P18054)", "LABEL": "false"}
{"MOLECULE": "OC1CC([C@@H](Cc2ccccn2)NC2CCC3(CCNCC3)CC2)C1 (stereo partly drawn)", "ASSAY TARGET": "Polyunsaturated fatty acid lipoxygenase ALOX12 (Homo sapiens) (UniProt P18054)", "LABEL": "false"}
{"MOLECULE": "CCCCn1c2ccccc2c2nnc(SCc3ccc(F)cc3)nc21", "ASSAY TARGET": "Polyunsaturated fatty acid lipoxygenase ALOX12 (Homo sapiens) (UniProt P18054)", "LABEL": "false"}
{"MOLECULE": "COC(=O)c1ccc(CNC(=O)Cn2cc(C)c(=O)[nH]c2=O)cc1", "ASSAY TARGET": "Polyunsaturated fatty acid lipoxygenase ALOX12 (Homo sapiens) (UniProt P18054)", "LABEL": "false"}
{"MOLECULE": "O=C(NC(c1ccc(-c2ccccc2)cc1)c1cnccn1)C1CCN(CCOc2ccc(Cl)cc2Cl)CC1 (stereo not drawn)", "ASSAY TARGET": "Polyunsaturated fatty acid lipoxygenase ALOX12 (Homo sapiens) (UniProt P18054)", "LABEL": "true"}
{"MOLECULE": "O=C1Nc2ccc(-c3ccc(Cl)cc3)cc2C(=O)N2CC[C@H](NC(=O)N3CCOCC3)[C@@H]12", "ASSAY TARGET": "Polyunsaturated fatty acid lipoxygenase ALOX12 (Homo sapiens) (UniProt P18054)", "LABEL": "false"}
{"MOLECULE": "CCN(C(=O)CCc1c[nH]c2ccccc12)c1ccc(F)cc1", "ASSAY TARGET": "Polyunsaturated fatty acid lipoxygenase ALOX12 (Homo sapiens) (UniProt P18054)", "LABEL": "false"}
{"MOLECULE": "CC(=O)CCC1=C(C)CCCC1(C)C", "ASSAY TARGET": "Polyunsaturated fatty acid lipoxygenase ALOX12 (Homo sapiens) (UniProt P18054)", "LABEL": "false"}
{"MOLECULE": "CCN(c1ccc(Cl)cc1)S(=O)(=O)c1nnc(NC(=O)c2ccco2)s1", "ASSAY TARGET": "Polyunsaturated fatty acid lipoxygenase ALOX12 (Homo sapiens) (UniProt P18054)", "LABEL": "false"}
{"MOLECULE": "Cc1cc2oc(C(=O)Nc3ccc(S(=O)(=O)N4CCCC(C)C4)cc3)cc(=O)c2cc1C (stereo not drawn)", "ASSAY TARGET": "Polyunsaturated fatty acid lipoxygenase ALOX12 (Homo sapiens) (UniProt P18054)", "LABEL": "false"}
{"MOLECULE": "O=C(NN=Cc1ccco1)C(=O)Nc1ccc(Cl)c([N+](=O)[O-])c1", "ASSAY TARGET": "Polyunsaturated fatty acid lipoxygenase ALOX12 (Homo sapiens) (UniProt P18054)", "LABEL": "false"}
{"MOLECULE": "CCOC(=O)c1sc(=S)n2c1[nH]c(=O)c1ccc(C(=O)OC)cc12", "ASSAY TARGET": "Polyunsaturated fatty acid lipoxygenase ALOX12 (Homo sapiens) (UniProt P18054)", "LABEL": "true"}
{"MOLECULE": "CO[C@H]1C(=O)N(C(C)C)[C@H]1C1CCN(C(=O)Nc2ccc(C)c(C)c2)CC1", "ASSAY TARGET": "Polyunsaturated fatty acid lipoxygenase ALOX12 (Homo sapiens) (UniProt P18054)", "LABEL": "false"}
{"MOLECULE": "CC(Sc1nc2cc(S(=O)(=O)N3CCCCC3)ccc2o1)C(=O)N1CCc2ccccc21 (stereo not drawn)", "ASSAY TARGET": "Polyunsaturated fatty acid lipoxygenase ALOX12 (Homo sapiens) (UniProt P18054)", "LABEL": "false"}
